# targetDesc: T1, CH505w020.14D8gp120
# T1 construct: also called CH505w20.14 gp120
# protocol: ELISA
Reported LogAUC by item:
Output: the number by itself.

[
  {
    "binder": "CH556 (antibody, V domains shown, also called CH235.11) VH: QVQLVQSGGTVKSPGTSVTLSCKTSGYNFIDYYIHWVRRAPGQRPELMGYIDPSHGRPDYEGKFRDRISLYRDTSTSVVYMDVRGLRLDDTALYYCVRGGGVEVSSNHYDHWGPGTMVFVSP VL: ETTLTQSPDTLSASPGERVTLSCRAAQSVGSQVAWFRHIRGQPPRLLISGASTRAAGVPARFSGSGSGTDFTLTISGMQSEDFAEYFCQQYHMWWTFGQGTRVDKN",
    "LogAUC": 0.11
  }
]

Data request, read-out LogAUC, for CH235.13 (antibody, V domains shown) VH: QVQLVQSGGGVKRPGSTTTISCVASGYSFNDYYIHWVRQAPGQGLEVLGFIDPSNGRTNYAGAFGDRFSMYRDKSMETLYMDLRNLRSDDTAMYYCVRNVGTAGSLLHYDHWGTGSKIIVSS VL: EIVLTQSPATLSASPGERVTLTCRASRGVRNNVAWYQHNVGQSPRLLIYDASTRAPGIPARFSGSASGTEFTLAISSIQSEDFTLYYCHQYNNWWTFGQGTRVDIN
6.14

Data origin: patent US10450368
